- Target: Metabotropic glutamate receptor 5 (Rattus norvegicus, UniProt P31424)
- Sequence (P31424 whole entry): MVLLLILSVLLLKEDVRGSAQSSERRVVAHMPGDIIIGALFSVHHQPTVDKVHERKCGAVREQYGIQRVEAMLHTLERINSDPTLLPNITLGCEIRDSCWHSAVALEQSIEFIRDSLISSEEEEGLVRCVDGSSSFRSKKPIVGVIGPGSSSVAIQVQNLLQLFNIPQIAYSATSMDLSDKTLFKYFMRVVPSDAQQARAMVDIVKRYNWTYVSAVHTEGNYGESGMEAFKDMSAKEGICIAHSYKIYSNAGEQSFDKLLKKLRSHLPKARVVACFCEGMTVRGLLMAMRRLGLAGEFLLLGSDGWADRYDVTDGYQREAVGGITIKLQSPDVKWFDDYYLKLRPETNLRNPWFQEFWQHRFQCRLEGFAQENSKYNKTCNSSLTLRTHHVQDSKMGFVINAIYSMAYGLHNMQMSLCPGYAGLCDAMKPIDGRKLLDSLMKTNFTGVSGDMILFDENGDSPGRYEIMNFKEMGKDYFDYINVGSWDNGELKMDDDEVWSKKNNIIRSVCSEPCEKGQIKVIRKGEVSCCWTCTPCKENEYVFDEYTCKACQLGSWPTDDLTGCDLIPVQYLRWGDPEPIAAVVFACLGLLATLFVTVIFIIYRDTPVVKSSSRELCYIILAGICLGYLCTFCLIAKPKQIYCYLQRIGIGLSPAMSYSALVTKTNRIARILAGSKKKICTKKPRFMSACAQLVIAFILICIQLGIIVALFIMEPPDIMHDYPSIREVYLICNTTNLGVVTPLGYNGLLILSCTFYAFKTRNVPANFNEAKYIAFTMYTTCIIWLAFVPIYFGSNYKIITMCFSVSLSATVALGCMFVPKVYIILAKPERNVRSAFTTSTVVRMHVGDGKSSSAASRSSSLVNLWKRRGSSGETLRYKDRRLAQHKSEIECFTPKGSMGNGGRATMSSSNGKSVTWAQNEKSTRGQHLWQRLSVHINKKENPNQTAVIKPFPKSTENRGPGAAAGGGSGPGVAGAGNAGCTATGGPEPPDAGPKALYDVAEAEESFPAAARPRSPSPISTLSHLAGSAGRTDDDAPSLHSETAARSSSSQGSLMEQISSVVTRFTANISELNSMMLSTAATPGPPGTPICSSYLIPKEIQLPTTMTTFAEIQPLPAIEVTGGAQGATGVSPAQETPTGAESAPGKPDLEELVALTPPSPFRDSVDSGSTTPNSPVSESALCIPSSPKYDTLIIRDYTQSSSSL
- Measurement Description: Compound was evaluated for the inhibitory activity against cloned Metabotropic glutamate receptor 5
pEC50: −log10 of the molar value.
Items are presented alongside their recorded pEC50.
Metric: pEC50

[
  {
    "Compound": "N[C@@H](CCCC(=O)O)C(=O)O [(S)-2-AMINOADIPIC ACID]",
    "Metric": "pEC50",
    "Assay Result": "< 3.00"
  },
  {
    "Compound": "N[C@H](Cc1cc(=O)[nH]o1)C(=O)O",
    "Metric": "pEC50",
    "Assay Result": "< 3.00"
  },
  {
    "Compound": "N[C@H](CCc1nsnc1O)C(=O)O",
    "Metric": "pEC50",
    "Assay Result": "< 3.00"
  }
]
